TEST DESCRIPTION: Stat Signaling Pathway (AID 446);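 further: ME-180 cervical cancer cells given 40 pM IL-6 alongside compound; SIE-controlled beta-lactamase reporter measured as 460/530 nm FRET emission ratio; on the % scale 0 is the no-effect control and ±100 the full control effect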
CONDITION LABEL: ME-180 SIE beta-lactamase reporter, IL-6 stimulated, 5 h; at 7.69 µM (top of the series) unless noted
Experimental: NCGC Assay Overview: The IL-6/STAT signaling pathway was assayed in ME-180 cervical carcinoma cells by a beta-lactamase reporter gene controlled by a STAT Inducible Element (SIE). This reporter is induced by IL-6 at 40 pM AC50 and inhibited by the pan JAK inhibitor, 2-(1,1-Dimethylethyl)-9-fluoro-3,6-dihydro-7H-benz[h]-imidaz[4,5-f]isoquinolin-7-one, at approximately 10 nM AC50. Plated cells were incubated overnight and on the following day, stimulated with 40 pM IL-6 for 5 hrs. […]
Results filed as inconclusive are left out. Calls of active or inactive are those of the source. The call rests on the fitted dose curve; in most records, active means well fitted curve in either direction with a large enough effect (not every such curve was filed as active); inconclusive means small, poorly fitted or top-dose-only effect, or another doubt; inactive means flat fitted curve, though single readings scatter.
PARAMETER MEASURED: activity, negative = inhibition

Look over these answered cases.
- SMILES RECORD: "N#Cc1cccc(NC(=O)N2CCCC3(CCN(C(=O)c4ccco4)CC3)C2)c1"
  activity, negative = inhibition: "-1.77% (inactive)"
- SMILES RECORD: "O=C(c1cccc(F)c1)N1CCC2(CCCN(c3cccc(-c4ccccc4)c3)C2)CC1"
  activity, negative = inhibition: "7.29% (inactive)"
- SMILES RECORD: "CC(C)(Oc1ccc([C@@H]2CC2(Cl)Cl)cc1)C(=O)O"
  activity, negative = inhibition: "-2.06% [at 17.2 µM] (inactive)"
- SMILES RECORD: "O=C(Nc1cccc(F)c1)N1CCC2(CC1)CCN(C(=O)c1cc(C(F)(F)F)cc(C(F)(F)F)c1)CC2"
  activity, negative = inhibition: "8.94% (inactive)"

The reported value for `COc1cccc(-c2ccc3ncnc(NCCN4CCOCC4)c3c2)c1` in terms of activity, negative = inhibition is -15.6% (inactive)

The reported value for `N#Cc1ccc(CN2CC3(CCN(C(=O)c4cccc(F)c4)CC3)C2)cc1` in terms of activity, negative = inhibition is -1.68% (inactive)

---

MEASURED TARGET: Cytochrome P450 1A2 (Homo sapiens) (UniProt P05177)
Sequence (P05177 whole entry, looked up): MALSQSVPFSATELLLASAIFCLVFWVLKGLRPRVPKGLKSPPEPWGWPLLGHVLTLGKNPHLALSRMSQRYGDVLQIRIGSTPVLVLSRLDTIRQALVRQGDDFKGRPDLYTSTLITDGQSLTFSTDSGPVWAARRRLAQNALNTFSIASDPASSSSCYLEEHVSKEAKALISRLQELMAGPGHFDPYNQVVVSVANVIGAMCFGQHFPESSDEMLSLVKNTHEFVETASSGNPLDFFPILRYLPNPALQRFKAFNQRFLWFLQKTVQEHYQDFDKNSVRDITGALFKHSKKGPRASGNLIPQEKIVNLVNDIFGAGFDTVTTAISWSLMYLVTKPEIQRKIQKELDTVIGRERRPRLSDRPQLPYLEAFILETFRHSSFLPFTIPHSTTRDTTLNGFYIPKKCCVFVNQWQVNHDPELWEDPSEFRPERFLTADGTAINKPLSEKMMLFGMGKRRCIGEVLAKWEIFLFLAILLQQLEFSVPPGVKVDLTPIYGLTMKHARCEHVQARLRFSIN
TEST DESCRIPTION: p450-cyp1a2 (AID 410)
CONDITION LABEL: recombinant CYP1A2, luciferin-ME demethylation, luminescence; series mostly up to 57 µM
Results filed as inconclusive are left out. The source made the active and inactive calls. The call rests on the fitted dose curve.
Can you answer with just one of these options? true for active, false for inactive

Would you please look over these solved cases?
- SMILES RECORD: "FC(F)(F)c1ccccc1-c1cncnc1NCc1cccnc1"
  GROUP: "true"
- SMILES RECORD: "Cn1c(=O)c(-c2cccc(Cl)c2)nc2cncnc21"
  GROUP: "true"
- SMILES RECORD: "Cc1cnc(CNc2nc(-c3ccc(N(C)C)cc3)nc3ccccc23)cn1"
  GROUP: "true"
- SMILES RECORD: "O=C(Nc1ccccc1)N1CCCC2(CCN(C(=O)c3cnccn3)CC2)C1"
  GROUP: "false"

Please let me know the test result on file for `CN(C)c1nc(-c2ccccc2C(F)(F)F)nc2ccccc12` .
true

Please let me know the test result on file for `COc1ccc(-c2nc3cnc(N4CCOCC4)nc3n(CCc3ccccc3)c2=O)cc1` .
true

---

TEST DESCRIPTION: AP1 Signaling Pathway (AID 357);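 further: ME-180 reporter cells stimulated with EGF at its EC50 level; on the % scale 0 is the no-effect control and ±100 the full control effect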
CONDITION LABEL: ME-180 (cervical carcinoma) AP-1-bla reporter, EGF-induced, beta-lactamase ratio, 5 h; at 7.69 µM (top of the series) unless noted
Results filed as inconclusive are left out. Active and inactive are the calls of the source. The call rests on the fitted dose curve; in most records, active means well fitted curve in either direction with a large enough effect (not every such curve was filed as active); inconclusive means small, poorly fitted or top-dose-only effect, or another doubt; inactive means flat fitted curve, though single readings scatter.
PARAMETER MEASURED: activity change, negative = inhibition

Look over these answered cases.
- SMILES RECORD: "COCCn1c(=O)c(-c2ccc(F)cc2)nc2cnc(Oc3cccc(Cl)c3)nc21"
  activity change, negative = inhibition: "1.58% (inactive)"
- SMILES RECORD: "COc1ccccc1CNc1ccnc(-c2ccccc2CN(C)C)n1"
  activity change, negative = inhibition: "-7.71% (inactive)"
- SMILES RECORD: "CS(=O)(=O)N1CCC2(CCCN(c3ncccn3)C2)CC1"
  activity change, negative = inhibition: "1.67% (inactive)"
- SMILES RECORD: "COc1ncc2nc(C)c(=O)n(Cc3ccc(F)cc3)c2n1"
  activity change, negative = inhibition: "-12.3% (inactive)"
- SMILES RECORD: "COc1ccc(-c2nc3cncnc3n(-c3ccccc3)c2=O)cc1"
  activity change, negative = inhibition: "-9.87% (inactive)"
- SMILES RECORD: "CC(C)CN1CCC2(CC1)CCN(C(=O)c1ccco1)CC2"
  activity change, negative = inhibition: "10.1% (inactive)"
- SMILES RECORD: "N#Cc1cccc(-c2ccc3ncnc(NC4CCNCC4)c3c2)c1"
  activity change, negative = inhibition: "-6.77% (inactive)"
- SMILES RECORD: "O=C(c1ccncc1)N1CCC2(CCCN(Cc3nccs3)C2)CC1"
  activity change, negative = inhibition: "-14.3% (inactive)"

The reported value for `CCN1C(=O)N[C@@H](c2ccccc2)C1=O` in terms of activity change, negative = inhibition is -1.74% [at 17.2 µM] (inactive)

The reported value for `CC(=O)N1CCC2(CCCN(c3ccncc3)C2)CC1` in terms of activity change, negative = inhibition is -16.6% (inactive)

The reported value for `COc1ccc(C(=O)N2CCC3(CC2)CN(c2ncccn2)C3)cc1` in terms of activity change, negative = inhibition is -9.3% (inactive)

The reported value for `O=C(c1ccncc1)N1CCC2(CCN(Cc3ccncc3)CC2)CC1` in terms of activity change, negative = inhibition is 7.83% (inactive)
